assay: in vitro; settings: NR = Neutral Red cell count (CC50)
PARAMETER_MEASURED: CC50
Answer with the value and then the unit.

Look at this compound and give its reported CC50. NC(=O)c1ncn([C@@H]2O[C@H](CO)[C@@H](O)[C@H]2O)n1 [Ribavirin]
40 µg/mL

* * *

assay: in vitro; conditions: CPE-inhibition (CC50), parallel to CMV CPE-inhibition; Table 6
PARAMETER_MEASURED: CC50

Look at this molecule and give its reported CC50. NC(=O)c1ncn([C@@H]2O[C@H](CO)[C@@H](O)[C@H]2O)n1
118 µg/mL
